Measured Comparison with the Binding of Phenylalanine, listed per entry.
# ASSAYED SYSTEM: L1 transport system (large neutral amino acid carrier, L1-system carrier) (Rattus norvegicus, UniProt Q63016)
# Construct: functionality of their endogenous transporters such as the L1-system carrier; endogenous in cells; host or cells: rat primary cerebrovascular (brain microcapillary) endothelial cells, RBEC
# Sequence (Q63016 whole entry): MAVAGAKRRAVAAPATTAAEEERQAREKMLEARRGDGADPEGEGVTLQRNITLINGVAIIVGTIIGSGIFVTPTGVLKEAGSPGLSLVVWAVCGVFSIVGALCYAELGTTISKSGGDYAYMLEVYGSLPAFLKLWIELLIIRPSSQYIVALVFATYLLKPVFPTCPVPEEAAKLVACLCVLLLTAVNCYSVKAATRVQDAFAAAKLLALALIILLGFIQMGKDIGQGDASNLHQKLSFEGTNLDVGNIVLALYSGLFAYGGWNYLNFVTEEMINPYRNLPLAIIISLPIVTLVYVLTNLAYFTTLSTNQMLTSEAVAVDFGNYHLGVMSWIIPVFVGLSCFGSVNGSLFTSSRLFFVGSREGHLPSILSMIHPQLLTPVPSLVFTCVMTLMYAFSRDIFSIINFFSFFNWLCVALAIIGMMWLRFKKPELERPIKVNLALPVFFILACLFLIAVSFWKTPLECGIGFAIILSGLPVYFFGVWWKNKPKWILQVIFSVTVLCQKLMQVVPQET
# Sequence (Q794F9 whole entry partner): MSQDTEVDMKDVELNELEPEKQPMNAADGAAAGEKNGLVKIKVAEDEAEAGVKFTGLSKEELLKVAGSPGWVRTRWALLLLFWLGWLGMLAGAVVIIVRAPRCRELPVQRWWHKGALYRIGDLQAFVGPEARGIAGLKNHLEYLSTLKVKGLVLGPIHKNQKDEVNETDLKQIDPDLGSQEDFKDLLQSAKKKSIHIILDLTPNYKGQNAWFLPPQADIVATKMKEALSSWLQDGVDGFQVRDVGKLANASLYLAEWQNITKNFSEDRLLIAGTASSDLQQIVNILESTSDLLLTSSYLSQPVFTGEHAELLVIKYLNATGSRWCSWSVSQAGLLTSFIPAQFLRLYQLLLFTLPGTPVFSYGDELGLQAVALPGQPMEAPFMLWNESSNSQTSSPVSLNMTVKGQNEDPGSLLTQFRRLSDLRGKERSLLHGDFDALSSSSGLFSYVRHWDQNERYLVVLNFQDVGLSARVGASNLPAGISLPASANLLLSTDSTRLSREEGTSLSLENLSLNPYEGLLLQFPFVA
# MEASUREMENT PROTOCOL: Competitive binding assay to the brain L1 transport system (L-[U-14C]phenylalanine on rat primary cerebrovascular endothelial cells)
# ASSAY SETUP: 10^−5 M

MOLECULE | RESULT
NC(Cc1cccc(CSc2nc(-c3ccccc3)c(-c3ccccc3)o2)n1)C(=O)O (centres unmarked) | 3 (X > 20 Rank 3)

Consider the molecule shown here: NC(Cc1cccc(-c2cccc(Sc3nc(-c4ccccc4)c(-c4ccccc4)o3)c2)c1)C(=O)O (centres unmarked) What is its recorded Comparison with the Binding of Phenylalanine?
0 (X < 0 Rank 0)

Could you share which Comparison with the Binding of Phenylalanine value was measured for NC(Cc1cccc(CSc2nc3cc([N+](=O)[O-])ccc3[nH]2)n1)C(=O)O (centres unmarked) ?
1 (0 < X < 10 Rank 1)

Tell me the measured Comparison with the Binding of Phenylalanine of NC(=O)C(N)Cc1cccc(CSc2nnc(-c3ccccc3)[nH]2)c1 (centres unmarked) , please.
3 (X > 20 Rank 3)

Please look up its Comparison with the Binding of Phenylalanine: NC(Cc1cccc(-c2cccc(N3CC=CCC3)c2)c1)C(=O)O (centres unmarked)
2 (10 < X < 20 Rank 2)

Entry Nc1ccnc(SCc2cccc(CC(N)C(=O)O)n2)n1 (centres unmarked) : reported Comparison with the Binding of Phenylalanine = ?
3 (X > 20 Rank 3)

Recorded Comparison with the Binding of Phenylalanine for O=C(Nc1ccc(-c2ccccc2)cc1)NC(Cc1cccc(CSc2nnc(-c3ccccc3)o2)c1)C(=O)O (centres unmarked) , please?
3 (X > 20 Rank 3)

Would you kindly share the measured Comparison with the Binding of Phenylalanine for NC(Cc1cccc(CSc2ccc3ccccc3n2)c1)C(=O)O (centres unmarked) ?
0 (X < 0 Rank 0)
